- Experiment description: NCI Yeast Anticancer Drug Screen. Data for the bub3 strain (AID 167)
- Experimental context: S. cerevisiae bub3 mutant strain, at 50.0 µM (retest, dose inferred, filed as 5.0)
This is part of a sample that, as a whole, favours compounds with a hit. Of some 79,000 tested, about 15% had one in any assay. Calls of active or inactive are those of the source. Cut-off read from the data, not from the text of the source: active = growth inhibition above about 70%; inactive = the rest.
Outcomes: active, inactive

>  <Molecule>
Cc1cc(C(O)(C(F)(F)F)C(F)(F)F)cc(C(O)(C(F)(F)F)C(F)(F)F)c1

>  <Answer label>
active

$$$$
>  <Molecule>
CCC1(O)c2ccccc2C(O)(CC)c2ccccc21 (centres undefined)

>  <Answer label>
inactive

$$$$
>  <Molecule>
CC(=O)OCc1c2ccccc2c(C)c2c1cc(F)c1ccccc12

>  <Answer label>
active

$$$$
>  <Molecule>
[Cl][Sn]1([Cl])[CH2]CC[CH2][Sn]([Cl])([Cl])[CH2]CC[CH2][Sn]([Cl])([Cl])[CH2]CC[CH2][Sn]([Cl])([Cl])[CH2]CC[CH2]1

>  <Answer label>
inactive

$$$$
>  <Molecule>
Fc1cccc(C2SCc3nc4ccccc4n32)c1F (centres undefined)

>  <Answer label>
inactive

$$$$
>  <Molecule>
O=C(Nc1cccc2ccccc12)OCCCCCCl

>  <Answer label>
active

$$$$
>  <Molecule>
CC(=O)Nc1n[n+]([O-])c2cc(C)ccc2[n+]1[O-]

>  <Answer label>
active

$$$$
>  <Molecule>
CCc1cccc(CC)c1NC(=O)CS

>  <Answer label>
active

$$$$
>  <Molecule>
CCOC(=O)c1c(Br)c(-c2ccc(Br)cc2)c(Br)n1C

>  <Answer label>
inactive

$$$$
>  <Molecule>
CCOP(=O)(OCC)C(=C1C=C(C(C)(C)C)C(=O)C(C(C)(C)C)=C1)P(=O)(OCC)OCC

>  <Answer label>
active

$$$$
>  <Molecule>
c1ccc(Cn2nnnc2-c2ccccc2)cc1

>  <Answer label>
inactive

$$$$
>  <Molecule>
Cc1cc(C)nc(CCSS(=O)(=O)O)c1

>  <Answer label>
inactive

$$$$
>  <Molecule>
CCO[Si](CC)(OCC)OCC

>  <Answer label>
inactive

$$$$
>  <Molecule>
CCOC(=O)/C(C#N)=C/c1ccccc1Br

>  <Answer label>
inactive

$$$$

----------
// growth inhibition lookup, one value per entry
- Experiment description: NCI Yeast Anticancer Drug Screen. Data for the sgs1 mgt1 strain (AID 161);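 note: 0% = growth of cultures given vehicle only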
- Experimental context: S. cerevisiae sgs1 mgt1 strain, at 50.0 µM, stronger effect = higher value
The panel holds about 79,000 compounds, 15% with a hit somewhere; the sample as a whole holds those more often.

>  <Compound>
CN(C)CCC[Si]1(C)c2ccccc2CCc2ccccc21

>  <growth inhibition (%)>
57.4

$$$$
>  <Compound>
CCOC(=O)c1ccc(NC(=O)O/N=C(/Cl)CC)cc1

>  <growth inhibition (%)>
80.1

$$$$
>  <Compound>
CCCCC#CC(=O)OCCCCC

>  <growth inhibition (%)>
-13.4

$$$$
>  <Compound>
CC(C)C(=O)c1ccc([N+](=O)[O-])o1

>  <growth inhibition (%)>
97.7

$$$$
>  <Compound>
CCOC(=O)C1CSC(c2c(CO)cnc(C)c2O)N1 (stereo not drawn)

>  <growth inhibition (%)>
9.55

$$$$
>  <Compound>
COc1cc(/C=C2/N=C(c3ccccc3)N(C3=NNC4(C(=O)N3)c3ccccc3-c3ccccc34)NC2=O)ccc1O

>  <growth inhibition (%)>
7.55

$$$$
>  <Compound>
CCOC(C)(OCC)C(N)c1ccccc1 (stereo not drawn)

>  <growth inhibition (%)>
-0.2

$$$$
>  <Compound>
O=C1c2ccccc2-c2cc([N+](=O)[O-])c([N+](=O)[O-])cc21

>  <growth inhibition (%)>
96

$$$$
>  <Compound>
CC(=O)Sc1ccc(Br)cc1

>  <growth inhibition (%)>
34.9

$$$$
>  <Compound>
CCCCCN1C(=O)CC(C(=O)OCC)=C1C

>  <growth inhibition (%)>
-23.9

$$$$
>  <Compound>
Oc1ccc2c(ccc3ccccc32)c1

>  <growth inhibition (%)>
99.4

$$$$
>  <Compound>
CC1=CC(=O)CC(c2ccccc2)C1 (stereo not drawn)

>  <growth inhibition (%)>
98.7

$$$$
>  <Compound>
CC(=O)N1C(C(=O)NNc2ccccc2)CSC1c1ccccc1 (stereo not drawn)

>  <growth inhibition (%)>
44.6

$$$$
>  <Compound>
CC(Nc1cc(Cl)cc(Cl)c1)c1ccncc1 (stereo not drawn)

>  <growth inhibition (%)>
43

$$$$
>  <Compound>
COc1ccc2nc3cc(Cl)ccc3c(NCCCN(Cc3cc(OC)c(OC)c(OC)c3)Cc3cc(OC)c(OC)c(OC)c3)c2c1

>  <growth inhibition (%)>
45.6

$$$$
>  <Compound>
O=C(/C=C(/Nc1ccccc1)C(=O)c1ccccc1)c1ccccc1

>  <growth inhibition (%)>
68.8

$$$$
>  <Compound>
COc1cccc2c1C(=O)c1c(O)c3c(c(O)c1C2=O)C[C@@](O)(C(C)=O)C[C@@H]3OC1CC(N(CCO)Cc2ccccc2)C(O)C(C)O1 (stereo partly drawn)

>  <growth inhibition (%)>
91.5

$$$$
>  <Compound>
c1ccc(-c2cc(-c3cc(-c4ccccn4)[nH]n3)n[nH]2)nc1

>  <growth inhibition (%)>
23.5

$$$$
>  <Compound>
CCCC(=O)Oc1ccc(-c2ccccc2)cc1Br

>  <growth inhibition (%)>
94.5

$$$$
>  <Compound>
C=C(Cl)C(=NC(C)(C)C)Nc1ccccc1Cl

>  <growth inhibition (%)>
63.1

$$$$
>  <Compound>
CCOC(=O)c1c(Cl)nnc(-c2ccccc2)c1-c1ccccc1

>  <growth inhibition (%)>
96.3

$$$$
>  <Compound>
CCCCC(CC)COP(=O)(OCC(CC)CCCC)OCC(CC)CCCC (stereo not drawn)

>  <growth inhibition (%)>
-2.85

$$$$
>  <Compound>
COc1cc(-c2nn3c(=O)n(-c4ccc(Cl)cc4)c(=O)nc3s2)cc(OC)c1OC

>  <growth inhibition (%)>
20.9

$$$$
>  <Compound>
N#CC(Cc1ccc(CC(C#N)(c2ccccc2)c2ccccn2)cc1)(c1ccccc1)c1ccccn1 (stereo not drawn)

>  <growth inhibition (%)>
10.9

$$$$
>  <Compound>
OCCN=Cc1cccs1

>  <growth inhibition (%)>
2.05

$$$$
>  <Compound>
N#Cc1cccc2c1Sc1ccccc1N2

>  <growth inhibition (%)>
89.2

$$$$
>  <Compound>
CCCCCOC(=O)C1C(=O)CC(c2ccccc2)C1c1ccccc1 (stereo not drawn)

>  <growth inhibition (%)>
56.1

$$$$
>  <Compound>
C1=CN2C(c3ccccc3)=NN(c3ccccc3)[C@@H]2c2ccccc21

>  <growth inhibition (%)>
56.3

$$$$
>  <Compound>
COC1=C(OC)C(=O)C(SCc2ccco2)=CC1=O

>  <growth inhibition (%)>
77.3

$$$$
>  <Compound>
Oc1c(Cl)ccc2cccnc12

>  <growth inhibition (%)>
94.1

$$$$
>  <Compound>
NC1c2ccccc2-c2ccc([N+](=O)[O-])cc21 (stereo not drawn)

>  <growth inhibition (%)>
26.6

$$$$
>  <Compound>
O=S1(=O)CC2C1C1(Cl)OC2(Cl)c2ccccc21 (stereo not drawn)

>  <growth inhibition (%)>
31.1

$$$$
>  <Compound>
CCOc1nc(N)nc(C)c1N=Nc1ccc(Cl)cc1

>  <growth inhibition (%)>
91.9

$$$$
>  <Compound>
COC(=O)C(=O)C(C(=O)c1ccc(F)cc1)c1nc2n(c1O)C(=N)N=N2 (stereo not drawn)

>  <growth inhibition (%)>
23.9

$$$$
>  <Compound>
COc1ccc(NC(=O)CC(=O)n2nc(-c3ccccc3)c(N=Nc3ccc(C)cc3)c2-c2ccccc2)cc1

>  <growth inhibition (%)>
-6.65

$$$$
>  <Compound>
CCOC(=O)c1c(SCC#N)n(-c2ccccc2)c(=S)n(-c2ccccc2)c1=O

>  <growth inhibition (%)>
75.3

$$$$
>  <Compound>
CCN(CC)Cc1cc(Nc2c3ccccc3nc3c2[nH]c2ccccc23)ccc1O

>  <growth inhibition (%)>
2.65

$$$$
>  <Compound>
O=C1C(=O)C(Cc2ccccc2)(c2ccccc2)C(=O)N1c1ccccc1 (stereo not drawn)

>  <growth inhibition (%)>
54.6

$$$$
>  <Compound>
CCOc1ccc2c(ccc(/C=C\c3cc(C)c4cccnc4c3O)[n+]2C)c1

>  <growth inhibition (%)>
90

$$$$
>  <Compound>
Cc1cc(Cl)ccc1C(=O)c1ccc2ccccc2c1C(=O)O

>  <growth inhibition (%)>
78

$$$$
>  <Compound>
CCOC(=O)CC[P+](Cc1ccccc1)(c1ccccc1)c1ccccc1

>  <growth inhibition (%)>
12.7

$$$$
>  <Compound>
CNC(=O)OCCC(OC(=O)NC)C1CCC2C3CC=C4CC(OC(=O)NC)CCC4(C)C3CCC12C (stereo not drawn)

>  <growth inhibition (%)>
2.6

$$$$
>  <Compound>
Clc1ccc(CN2COc3c(cc(Cl)c4cccnc34)C2)cc1

>  <growth inhibition (%)>
16.5

$$$$
